Data provenance: ChEMBL document CHEMBL3045881

- System: Human immunodeficiency virus 1
- method: Antiviral activity against wild type Human immunodeficiency virus 1 infected human MT4 cells assessed as inhibition of virus-induced cytopathic effect after 4 days by MTT assay
- Format: functional, organism-based
- protocol_conditions: Human immunodeficiency virus 1, MT4, 96 h
observation_type: EC50

• O=C(OCCCN1C(=O)c2ccccc2C1=O)c1ccc(Cl)c([N+](=O)[O-])c1 = > 100 µM
• CC(CN1C(=O)c2ccccc2C1=O)OC(=O)c1ccc(Cl)c([N+](=O)[O-])c1 (racemic) = > 34 µM
• O=C(OCCN1C(=O)c2ccccc2C1=O)c1cc(F)ccc1Cl = > 100 µM
• Cc1ccc2c(c1)C(=O)N(CCOC(=O)c1cc(F)ccc1F)C2=O = > 100 µM
• O=C(OCCN1C(=O)c2ccccc2C1=O)c1ccc2ccccc2c1 = > 100 µM
• O=C(OCCS(=O)(=O)c1ccccc1)c1ccc(Cl)c(Cl)c1 = > 19 µM
• O=C(OCCN1C(=O)c2ccccc2C1=O)c1cc([N+](=O)[O-])ccc1Cl = > 30 µM
• Cc1cc(C(=O)OC2Cc3cccc4cccc2c34)ccc1Br (racemic) = > 100 µM
• O=C(OC1Cc2cccc3cccc1c23)c1ccc(Cl)c(Cl)c1 (racemic) = > 100 µM
• O=C(OCCN1C(=O)[C@H]2CCCC[C@H]2C1=O)c1ccc(Cl)c([N+](=O)[O-])c1 = > 28 µM
• O=C(OCN1C(=O)c2ccccc2C1=O)c1ccc(Cl)c([N+](=O)[O-])c1 = > 11 µM
• O=C(OCCN1C(=O)c2ccccc2C1=O)c1ccc(Cl)c([N+](=O)[O-])c1 = 0.7 µM
• CCC(C(=O)OCCN1C(=O)c2ccccc2C1=O)c1ccccc1 (racemic) = 16 µM
• O=C(OCCN1C(=O)c2ccccc2C1=O)c1cc(F)ccc1Br = 35 µM
• CC(CN1C(=O)c2ccccc2C1=O)OC(=O)c1cc(F)ccc1F (racemic) = > 100 µM

###

Reported CC50 values for a set of molecules
- method: Cytotoxicity against mock infected Homo sapiens (human) MT4 cells assessed as cell viability by MTT assay
- Format: cell-based
observation_type: CC50

* O=C(OCCN1C(=O)c2ccccc2C1=O)c1cc(F)cc(F)c1 | > 100 µM
* Cc1cc(C(=O)OC2Cc3cccc4cccc2c34)ccc1Br (racemic) | 8 µM
* O=C(OC1Cc2cccc3cccc1c23)c1ccc(Cl)c(Cl)c1 (racemic) | 42 µM
* O=C(OCCN1C(=O)c2ccccc2C1=O)c1ccccc1[N+](=O)[O-] | > 100 µM
* O=C(OCCN1C(=O)c2ccccc2C1=O)c1cc(F)ccc1Br | > 100 µM
* Cc1ccc(F)cc1C(=O)OCCN1C(=O)c2ccccc2C1=O | > 100 µM
* O=C(OCCN1C(=O)c2ccccc2C1=O)c1ccccc1 | > 100 µM
* O=C(OCN1C(=O)c2ccccc2C1=O)c1ccc(Cl)c([N+](=O)[O-])c1 | 11 µM
* Cc1cc(C(=O)OCCN2C(=O)c3ccccc3C2=O)ccc1Br | > 100 µM
* O=C(OCCN1C(=O)c2ccccc2C1=O)c1cccc(F)c1F | > 100 µM
* O=C(OCCN1C(=O)[C@H]2CCCC[C@H]2C1=O)c1cc(F)ccc1F | > 100 µM
* O=C(OCCN1C(=O)c2ccccc2C1=O)c1cccc(Cl)c1 | > 100 µM
* O=C(OCCN1C(=O)c2ccccc2C1=O)c1cccnc1Cl | > 100 µM
* CC(COC(=O)c1cc(F)ccc1F)N1C(=O)c2ccccc2C1=O (racemic) | > 100 µM
* O=C(OCCN1C(=O)c2ccccc2C1=O)c1cc(C(F)(F)F)ccc1F | > 100 µM
* O=C(OCCOc1ccc([N+](=O)[O-])cc1)c1ccc(Cl)c([N+](=O)[O-])c1 | 47 µM
* O=C(OCCN1C(=O)c2ccccc2C1=O)c1ccc(Cl)c([N+](=O)[O-])c1 | > 100 µM
* O=C(OCCCN1C(=O)c2ccccc2C1=O)c1cc(F)ccc1F | > 100 µM
* CCCCCc1ccc(C(=O)OCCN2C(=O)c3ccccc3C2=O)cc1 | > 100 µM
* O=C(OCCN1C(=O)c2ccccc2C1=O)c1ccc(Cl)c(Cl)c1 | > 100 µM
* O=C(OCCN1C(=O)c2ccccc2C1=O)c1ccc(F)c(F)c1 | > 100 µM
* O=C(OCCOc1ccc(Br)cc1)c1ccc(Cl)c([N+](=O)[O-])c1 | 59 µM
* O=C(OCCS(=O)(=O)c1ccccc1)c1ccc(Cl)c(Cl)c1 | 19 µM
* O=C(/C=C/c1ccccc1)OCCN1C(=O)c2ccccc2C1=O | > 100 µM
* O=C(OCCN1C(=O)c2ccccc2C1=O)c1cc(Cl)cc(Cl)c1 | > 100 µM
* CC(C)(C)c1ccc2c(c1)C(=O)N(CCOC(=O)c1cc(F)ccc1F)C2=O | > 100 µM
* O=C(OCCN1C(=O)c2ccccc2C1=O)c1cc([N+](=O)[O-])ccc1F | > 100 µM
* O=C(OCCN1C(=O)[C@H]2CC=CC[C@H]2C1=O)c1cc(F)ccc1F | > 100 µM
* CC(C)(C)c1ccc(C(=O)OCCN2C(=O)c3ccccc3C2=O)cc1 | 92 µM
* O=C(OCCN1C(=O)c2ccccc2C1=O)c1c(F)cccc1F | > 100 µM
* O=C(OCCN1C(=O)c2ccccc2C1=O)c1ccccc1Cl | > 100 µM
* O=C(OCCN1C(=O)c2ccccc2C1=O)c1cc(F)ccc1Cl | > 100 µM
